# protocol: AUC (0 to 6 hrs) in dog at 2 mg/kg, po
# Format: ADME, organism-based, Canis lupus familiaris
# Parameters: time < 6 hr, dose 2 mg/kg, route oral
# experimental_context: plasma
Criterion: AUC(0-t) at 6 h meeting or surpassing 0.8 µM·h. Met: yes. Not met: no.

Consider the following illustrative entries.
compound=CCC[C@H](NC(=O)[C@@H]1[C@@H]2[C@H](CN1C(=O)[C@@H](NC(=O)NC1(CS(=O)(=O)N(C)C(C)C)CCCCC1)C(C)(C)C)C2(C)C)C(=O)C(=O)NC1CC1 category=no
compound=CCC[C@H](NC(=O)[C@@H]1[C@@H]2[C@H](CN1C(=O)[C@@H](NC(=O)NC1(CS(=O)(=O)N(C)C3CC3)CCCCC1)C(C)(C)C)C2(C)C)C(=O)C(=O)NC1CC1 category=yes
compound="CN(C1CC1)S(=O)(=O)CC1(NC(=O)N[C@H](C(=O)N2CC3C([C@H]2C(=O)N[C@@H](CCC2CC2)C(=O)C(=O)NC2CC2)C3(C)C)C(C)(C)C)CCCCC1 (single isomer, unassigned)" category=yes

Q) I'd appreciate it if you could say whether CCC[C@H](NC(=O)[C@@H]1[C@@H]2[C@H](CN1C(=O)[C@@H](NC(=O)NC1(CS(=O)(=O)N(C)C)CCCCC1)C(C)(C)C)C2(C)C)C(=O)C(=O)NC1CC1 has AUC(0-t) at 6 h at least equal to 0.8 µM·h.
A) yes

---

# protocol: AUC (0 to 6 hrs) in rat at 10 mg/kg, po
# Assay type: ADME, organism-based
# Design: time < 6 hr, dose 10 mg/kg, route oral
# experimental_context: plasma
Could you please report measured AUC(0-t) at 6 h for the items listed next?
Answer by giving the amount and then stating its unit.

Field: example entries. Status: answers known.
molecule=CCC[C@H](NC(=O)[C@@H]1[C@@H]2[C@H](CN1C(=O)[C@@H](NC(=O)NC1(CS(=O)(=O)N(C)C(C)(C)C)CCCCC1)C(C)(C)C)C2(C)C)C(=O)C(=O)NC1CC1 result="0.6 µM·h"
molecule=CCC[C@H](NC(=O)[C@@H]1[C@@H]2[C@H](CN1C(=O)[C@@H](NC(=O)NC1(CS(=O)(=O)N(C)C(C)C)CCCCC1)C(C)(C)C)C2(C)C)C(=O)C(=O)NC1CC1 result="0.9 µM·h"
molecule=CCC[C@H](NC(=O)[C@@H]1[C@@H]2[C@H](CN1C(=O)[C@@H](NC(=O)NC1(CS(=O)(=O)N(C)C3CC3)CCCCC1)C(C)(C)C)C2(C)C)C(=O)C(=O)NC1CC1 result="1.8 µM·h"
molecule=CCC[C@H](NC(=O)[C@@H]1[C@@H]2[C@H](CN1C(=O)[C@@H](NC(=O)NC1([C@@H]3CCN(C)S3(=O)=O)CCCCC1)C(C)(C)C)C2(C)C)C(=O)C(=O)NC1CC1 result="0.1 µM·h"
molecule="CCC[C@H](NC(=O)[C@@H]1[C@@H]2[C@H](CN1C(=O)[C@@H](NC(=O)NC1(C3CCN(C4CC4)S3(=O)=O)CCCCC1)C(C)(C)C)C2(C)C)C(=O)C(=O)NC1CC1 (single isomer, unassigned)" result="0.1 µM·h"

Please report AUC(0-t) at 6 h for every entry that follows.
1. CCC[C@H](NC(=O)[C@@H]1[C@@H]2[C@H](CN1C(=O)[C@@H](NC(=O)NC1(CS(=O)(=O)N(C(C)C)C3CC3)CCCCC1)C(C)(C)C)C2(C)C)C(=O)C(=O)NC1CC1
2. CN(C1CC1)S(=O)(=O)CC1(NC(=O)N[C@H](C(=O)N2CC3C([C@H]2C(=O)N[C@@H](CCC2CC2)C(=O)C(=O)NC2CC2)C3(C)C)C(C)(C)C)CCCCC1 (single isomer, unassigned)

A)
1: 1.7 µM·h; 2: 0.9 µM·h
